procedure-text: qHTS assay for small molecules that induce genotoxicity in human embryonic kidney cells expressing luciferase-tagged ATAD5 - cell viability (AID 651634); also: nearly all actives have a fitted effect of over 25% in size
setup-conditions: HEK293T ATAD5-luc cells viability, CellTiter-Fluor, 15.5 h; series mostly up to 83.3 µM
Results filed as inconclusive are left out. Activity calls are given as the source filed them. Calls follow the shape of the full dose curve.
Outcome (select one): 1 (yes) (active), 0 (no) (inactive)

// below: answered compounds
1. CN(C)C(=O)CCSC(SCCC(=O)O)c1cccc(/C=C/c2ccc3ccc(Cl)cc3n2)c1 (configuration not stated)	1 (yes)
2. CCCC(=O)O[C@]1(C(=O)COC(=O)CC)[C@@H](C)C[C@H]2[C@@H]3CCC4=CC(=O)C=C[C@]4(C)[C@@]3(F)[C@@H](O)C[C@@]21C	0 (no)
3. CCCCCCCCCCCC(=O)OC[C@@H](O)C1OC[C@H](O)[C@H]1O (some centres not stated)	0 (no)
4. Cc1cc(-c2ccc(N=Nc3c(S(=O)(=O)O)cc4cc(S(=O)(=O)O)cc(N)c4c3O)c(C)c2)ccc1N=Nc1c(S(=O)(=O)O)cc2cc(S(=O)(=O)O)cc(N)c2c1O	1 (yes)
5. Cc1cccc(C)c1N(CCCc1cccnc1)C(=O)C(C)N (configuration not stated)	0 (no)

[Q] For C/C=C(/CC[C@@H](C)[C@H]1CC[C@H]2C3=CC[C@H]4[C@H](C)[C@@H](O)CC[C@]4(C)[C@H]3CC[C@]12C)C(C)C , what call appears in the results of this test?
[A] 0 (no)

[Q] I'd appreciate the recorded outcome for CC1(C)S[C@@H]2[C@H](NC(=O)C(N)c3ccccc3)C(=O)N2[C@H]1C(=O)OC1OC(=O)c2ccccc21 (some centres not stated) from this test.
[A] 0 (no)

[Q] Recorded test call requested for O=P(O)(O)OC[C@H]1O[C@](O)(COP(=O)(O)O)[C@@H](O)[C@@H]1O
[A] 0 (no)

[Q] Call for entry CC(C)(C)NC(=O)[C@H]1CC[C@H]2[C@@H]3CC=C4C=C(C(=O)O)CC[C@]4(C)[C@H]3CC[C@]12C :
[A] 0 (no)

[Q] Field: outcome | Entry: CC1(C)S[C@@H]2[C@H](NC(=O)[C@H](N)c3ccccc3)C(=O)N2[C@H]1C(=O)OCOC(=O)[C@@H]1N2C(=O)C[C@H]2S(=O)(=O)C1(C)C
[A] 0 (no)

[Q] Outcome? C[C@]12C=CC(=O)C=C1CC[C@@H]1[C@@H]2[C@@H](O)C[C@@]2(C)[C@H]1CC[C@]2(O)C(=O)COC(=O)CCC(=O)O
[A] 0 (no)

[Q] Per the assay record, what outcome was assigned to Cc1nnc(C(C)C)n1C1C[C@H]2CC[C@@H](C1)N2CC[C@H](NC(=O)C1CCC(F)(F)CC1)c1ccccc1 (some centres not stated) ?
[A] 0 (no)

[Q] Per the records of this test, what outcome belongs to CCCOc1cc(N)ccc1C(=O)OCCN(CC)CC ?
[A] 0 (no)

[Q] Hey, what did the test say about O=C(c1cc2ccccc2o1)N1CCN(Cc2ccccc2)CC1 ?
[A] 0 (no)

[Q] What call does the record list for CC(C)(C)C(=O)OCOC(=O)[C@@H]1N2C(=O)[C@@H](N=CN3CCCCCC3)[C@H]2SC1(C)C ?
[A] 0 (no)

[Q] // param item: CCOc1cc(-c2nccc3cc(OC)c(OC)cc23)cc(OCC)c1OCC ; yields the recorded call
[A] 1 (yes)

[Q] Could you kindly confirm the outcome this assay logged for Cc1cc(C)c(NC(=O)C[C@H](CC(=O)O)c2cccc3ccccc23)c(C(=O)N2CCC3(CCCC3)CC2)c1 ?
[A] 0 (no)
